System Name: T1R1/T1R3 (Homo sapiens (Human), UniProt Q7RTX0+Q7RTX1)
Sequence (Q7RTX1 21-841): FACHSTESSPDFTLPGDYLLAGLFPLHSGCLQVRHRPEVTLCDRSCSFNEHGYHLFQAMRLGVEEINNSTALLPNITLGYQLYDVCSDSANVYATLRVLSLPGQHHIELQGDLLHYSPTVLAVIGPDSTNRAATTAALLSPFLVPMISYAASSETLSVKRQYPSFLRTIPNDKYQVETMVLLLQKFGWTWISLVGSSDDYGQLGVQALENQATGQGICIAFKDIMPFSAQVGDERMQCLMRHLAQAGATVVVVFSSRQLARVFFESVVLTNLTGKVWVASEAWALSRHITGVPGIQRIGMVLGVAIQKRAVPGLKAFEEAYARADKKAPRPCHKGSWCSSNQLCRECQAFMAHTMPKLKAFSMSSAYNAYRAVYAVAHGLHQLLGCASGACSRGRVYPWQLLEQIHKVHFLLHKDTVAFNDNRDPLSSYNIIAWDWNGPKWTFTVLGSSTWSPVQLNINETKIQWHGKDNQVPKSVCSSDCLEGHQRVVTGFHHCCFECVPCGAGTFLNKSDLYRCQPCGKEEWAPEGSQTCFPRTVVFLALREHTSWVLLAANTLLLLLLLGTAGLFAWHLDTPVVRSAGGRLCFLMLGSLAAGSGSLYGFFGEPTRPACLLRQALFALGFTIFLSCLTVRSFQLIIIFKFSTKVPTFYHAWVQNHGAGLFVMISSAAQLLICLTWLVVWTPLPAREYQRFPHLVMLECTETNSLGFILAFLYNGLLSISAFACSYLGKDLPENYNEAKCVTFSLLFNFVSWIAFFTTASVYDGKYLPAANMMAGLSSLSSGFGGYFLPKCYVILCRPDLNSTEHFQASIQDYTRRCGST
Sequence (Q7RTX0 21-852 C757R): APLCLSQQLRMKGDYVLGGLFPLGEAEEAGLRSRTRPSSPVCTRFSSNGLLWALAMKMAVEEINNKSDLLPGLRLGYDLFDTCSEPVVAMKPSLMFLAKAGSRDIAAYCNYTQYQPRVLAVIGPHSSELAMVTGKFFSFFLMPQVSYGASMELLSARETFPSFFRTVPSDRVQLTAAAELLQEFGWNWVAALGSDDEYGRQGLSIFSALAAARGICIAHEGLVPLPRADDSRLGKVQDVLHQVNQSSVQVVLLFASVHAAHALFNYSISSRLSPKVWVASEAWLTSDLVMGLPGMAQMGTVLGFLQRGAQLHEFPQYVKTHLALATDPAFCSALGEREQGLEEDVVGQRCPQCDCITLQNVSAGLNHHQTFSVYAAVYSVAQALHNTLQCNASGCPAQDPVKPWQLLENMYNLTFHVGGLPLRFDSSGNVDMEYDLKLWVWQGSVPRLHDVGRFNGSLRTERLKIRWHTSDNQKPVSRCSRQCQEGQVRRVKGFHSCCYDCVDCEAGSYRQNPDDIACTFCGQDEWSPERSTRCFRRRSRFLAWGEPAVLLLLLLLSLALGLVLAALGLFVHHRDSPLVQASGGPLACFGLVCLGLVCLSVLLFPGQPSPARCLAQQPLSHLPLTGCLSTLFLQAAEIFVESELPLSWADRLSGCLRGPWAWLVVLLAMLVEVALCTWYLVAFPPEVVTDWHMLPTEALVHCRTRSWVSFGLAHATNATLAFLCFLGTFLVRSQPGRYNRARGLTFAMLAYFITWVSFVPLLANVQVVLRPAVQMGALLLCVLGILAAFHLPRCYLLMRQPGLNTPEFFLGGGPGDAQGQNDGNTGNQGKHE
Experiment Notes: Umami enhancement assay: MSG dose response with and without compound
Type: cell-based
Experimental Conditions: Table 1; compound @ 0.3 uM
Readout: Ec50 ratio (vs. MSG)
API doc: respond with a numeric literal and nothing else, no unit.

CCCC(CCC)NC(=O)c1ccc(OCC)cc1 [Compound A68] : 2.62
CCCC(CCC)NC(=O)c1ccc(OC)c(F)c1 [Compound A74] : 4.98
CCC(COC)NC(=O)c1cc2cc(Cl)ccc2o1 (centres unmarked) [Compound A11] : 6.5
COc1ccc(C(=O)NC2CCc3ccccc32)cc1Cl (centres unmarked) [Compound A106] : 4.01

Request: Please give measured Ec50 ratio (vs. MSG) of the following entry: C=Cc1ccc(C(=O)NC(CCC)CCC)cc1 [Compound A78]
Result: 10.22

====

System Name: T1R1/T1R3 (Homo sapiens (Human), UniProt Q7RTX0+Q7RTX1)
Experiment Notes: Umami enhancement assay: MSG dose response with and without compound
Assay type: cell-based
Experimental Conditions: Table 1; compound @ 1 uM
Readout: Ec50 ratio (vs. MSG)
API doc: respond with a numeric literal and nothing else, no unit.

CCC(CC)NC(=O)c1cc2ccccc2o1 [Compound A21] : 3.74
CCC[C@@H](NC(=O)c1ccc(OC)c(Cl)c1)C(=O)OC [Compound A67] : 10.75
CCCC(CCC)NC(=O)c1ccc(OC)cc1O [Compound A101] : 7.62
CCCC(CCC)NC(=O)c1cc2cc(C)ccc2o1 [Compound A10] : 4.51
COC(=O)C(CC(C)C)NC(=O)c1cc2cc(OC)ccc2o1 (stereo in doubt) [Compound A6] : 2.86

Request: Lab note: T1R1/T1R3 (Homo sapiens (Human), UniProt Q7RTX0+Q7RTX1) assay, enter Ec50 ratio (vs. MSG) for C=Cc1ccc(C(=O)N[C@H]2CCCc3ccccc32)cc1 [Compound A105] here
Result: 2.79

Request: Give the observed Ec50 ratio (vs. MSG) of Cc1cc(C(=O)NC2CCCc3ccccc32)ccc1O (stereo not shown) [Compound A102] for T1R1/T1R3 (Homo sapiens (Human), UniProt Q7RTX0+Q7RTX1).
Result: 9.49

Request: Using T1R1/T1R3 (Homo sapiens (Human), UniProt Q7RTX0+Q7RTX1) as the test system, report measured Ec50 ratio (vs. MSG) of Cc1ccc(C(=O)NC2CCCc3ccccc32)s1 (stereo not shown) [Compound A39] .
Result: 2.3

Request: Retrieve Ec50 ratio (vs. MSG) on T1R1/T1R3 (Homo sapiens (Human), UniProt Q7RTX0+Q7RTX1); query CCCC(CCC)NC(=O)c1ccc2cc[nH]c2c1 [Compound A35]
Result: 8.81

Request: GET Ec50 ratio (vs. MSG) where system = T1R1/T1R3 (Homo sapiens (Human), UniProt Q7RTX0+Q7RTX1) and item = CCOc1ccc(NC(=O)c2c(Cl)ccc(Cl)c2OC)cc1 [Compound A1]
Result: 2.74

====

System Name: T1R1/T1R3 (Homo sapiens (Human), UniProt Q7RTX0+Q7RTX1)
Experiment Notes: Umami FLIPR assay, HEK-Gα15 clone I-17 inducibly expressing T1R1/T1R3
Experimental Conditions: Table 1 Umami Amides
pEC50 values for the compounds below.
Scale note: pEC50 = -log10(concentration in M).

Some compounds with known pEC50 results, for comparison:
COC(=O)C(NC(=O)c1ccc2oc(C)nc2c1)C(C)C(C)C (centres unmarked) [Compound A28] : 5.77
CCCC(CC)NC(=O)c1ccc2c(c1)CCO2 (centres unmarked) [Compound A53] : 5.74
CCCC(CCC)NC(=O)c1cccc(OC)c1 [Compound A84] : 6.28
COC(=O)[C@@H](CC(C)C)NC(=O)c1ccc2c(c1)OCO2 [Compound A45] : 6.06

Request: Read off the recorded pEC50 for CCCC[C@@H](NC(=O)c1ccc2c(c1)OCO2)C(=O)OC [Compound A44]
Result: 6.21

Request: Give the measured pEC50 for COC(=O)[C@H]1CCCC[C@H]1NC(=O)c1ccc(OC)c(Cl)c1 [Compound A103]
Result: 5.87

Request: Using the record for COC(=O)[C@@H](CCSC)NC(=O)c1ccc(OC)c(C)c1 [Compound A86] , state its measured pEC50.
Result: 6.28

Request: Indicate its recorded pEC50; the compound in question is CCCC(CCC)NC(=O)c1cccc(C(C)(F)F)c1 [Compound A70]
Result: 6.48
